Target: human IBAT (Homo sapiens)
Sequence (Q12908 1-348): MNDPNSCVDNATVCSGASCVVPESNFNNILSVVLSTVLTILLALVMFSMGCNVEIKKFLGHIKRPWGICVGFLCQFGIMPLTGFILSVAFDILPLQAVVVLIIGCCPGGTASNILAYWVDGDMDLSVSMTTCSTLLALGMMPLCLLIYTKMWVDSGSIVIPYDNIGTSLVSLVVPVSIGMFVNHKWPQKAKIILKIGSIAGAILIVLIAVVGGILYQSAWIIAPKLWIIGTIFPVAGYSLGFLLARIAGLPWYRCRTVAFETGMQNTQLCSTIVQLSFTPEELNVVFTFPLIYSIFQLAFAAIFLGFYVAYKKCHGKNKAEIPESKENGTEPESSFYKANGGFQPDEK
Assay: In vitro assay of temporarily expressed human IBAT transporter using Cos 7 cells (Test Example 8)
Conditions: Cos 7 cells temporarily expressing human IBAT; [3H] taurocholate 8 μM, 37° C., 60 minutes
Procedure: In Vitro Assay of Compounds Which Inhibit Temporarily Expressed Human IBAT Transporter or Rat IBAT Transporter Using Cos 7 Cells […] That is, […] Cos 7 were inoculated on a 24-well cell plate. […] Measurement of radioactivity was carried out by introducing the cell lyzate in 4 ml of liquid scintillation cocktail, stirring the mixture well, and then measuring the radioactivity by a scintillation counter.
Quick reference for pIC50 among some molecules
The read-out pIC50 is expressed as -log10 of concentration in moles per litre.

Reference set, count: 5
molecule | pIC50
CCCCC1(CCCC)CS(=O)(=O)c2ccc(N(C)C)cc2C(c2cccc(NC(=S)Nc3cccc(C[n+]4cccc(CC)c4)c3)c2)N1 (stereo not drawn) | 7.19
CCCCC1(CCCC)CS(=O)(=O)c2ccc(N(C)C)cc2C(c2cccc(NC(=S)CCCCC[N+]34CCC(c5ccccc5)(CC3)CC4)c2)N1 (stereo not drawn) | 7.55
CCCCC1(CCCC)CS(=O)(=O)c2ccc(N(C)C)cc2C(c2cccc(NC(=S)Nc3ccc(C[N+]45CCN(CC4)CC5)cc3)c2)N1.[Br-] (stereo not drawn) | 7.27
CCCCC1(CCCC)CS(=O)(=O)c2ccc(N(C)C)cc2C(c2cccc(NC(=S)Nc3ccc(C[n+]4ccc(CCCO)cc4)cc3)c2)N1 (stereo not drawn) | 7.24
CCCCC1(CCCC)CS(=O)(=O)c2ccc(N(C)C)cc2C(c2cccc(NC(=S)Nc3ccc(C[N+]4(C)CCCCC4)cc3)c2)N1 (stereo not drawn) | 7.15

Next molecule, pIC50 to be filled in.
# input Any idea what pIC50 was measured for CCCCC1(CCCC)CS(=O)(=O)c2ccc(N(C)C)cc2C(c2cccc(NC(=S)Nc3ccc(C[n+]4ccc(CCC)cc4)cc3)c2)N1 (stereo not drawn) ?
# output 7.20

---

Molecular target: UniProtKB Q12908
Experiment: In vitro assay of temporarily expressed human IBAT transporter using Cos 7 cells (Test Example 8)
Conditions: Cos 7 cells temporarily expressing human IBAT; [3H] taurocholate 8 μM, 37° C., 60 minutes
pIC50: −log10 of the molar value.
Lab note: anything with pIC50 at or over 7 counts as Criterion met; the rest go in Criterion not met.

compound | target_entity | assigned_category
CCCCC1(CCCC)CS(=O)(=O)c2ccc(N(C)C)cc2C(c2cccc(NC(=S)Nc3ccc(C[N+](C)(CCC)CCC)cc3)c2)N1 (stereo not drawn) [Example 3426] | UniProtKB Q12908 | Criterion met

# input Decide: is the reported value of pIC50 for CCCCC1(CCCC)CS(=O)(=O)c2ccc(N(C)C)cc2C(c2cccc(NC(=S)Nc3ccc(C[n+]4cccc5cc(C)ccc54)cc3)c2)N1 (stereo not drawn) [Example 3770] equal to or greater than 7?
# output Criterion met

# input Decide: is the reported value of pIC50 for CCCCC1(CCCC)CS(=O)(=O)c2ccc(N(C)C)cc2C(c2cccc(NC(=S)NCCC[N+](C)(C)Cc3ccccc3)c2)N1.[Br-] (stereo not drawn) [Example 425] equal to or greater than 7?
# output Criterion not met
